experiment: NCI Yeast Anticancer Drug Screen. Data for the mlh1 rad18 strain (AID 175); settings: S. cerevisiae mlh1 rad18 strain growth inhibition; at 50.0 µM; active compounds read high
About 79,000 compounds went through this panel and 15% of them were active in at least one assay; those are over-represented in the sample as a whole.
Values of growth inhibition greater than or equal to 90% map to yes; values below map to no.

{"Compound": "CCCCCCCNC1CCCc2cc(OC)ccc21 (centres undefined)", "Label": "no"}
{"Compound": "Cc1oc2c(c1C(=O)c1ccccc1)C(=O)c1ccccc1C2=O", "Label": "no"}
{"Compound": "CCCCCCCCCCCCCCCCCC(=O)Nc1ccn(C2OC(CO)C(O)C2O)c(=O)n1 (centres undefined)", "Label": "no"}
{"Compound": "CN=c1sc2c(n1C)C(=O)c1ccccc1C2=O", "Label": "no"}
{"Compound": "COC(=O)C12CCC(C)(C)CC1C1=CCC3C4(C)CC(O)C(O)C(C)(C(=O)OC)C4CCC3(C)C1(CO)CC2 (centres undefined)", "Label": "no"}
{"Compound": "Cn1cnc(=S)c2[nH]cnc21", "Label": "no"}
{"Compound": "O=[N+]([O-])c1ccc2c(c1)/C(=N/O)c1ccccc1-2", "Label": "no"}
{"Compound": "S=C(Nc1cc(Cl)c(Cl)cc1Cl)SCc1ccccc1", "Label": "yes"}
{"Compound": "COc1ccc2c(c1)c1c(C)c3cnccc3c(C)c1n2CCCN", "Label": "no"}
{"Compound": "CC1CCCC(C(c2c[nH]c3ccccc23)c2c[nH]c3ccccc23)C1=O (centres undefined)", "Label": "yes"}
{"Compound": "Cc1ccc2c(c1)C1(SCC(=O)N1c1ccc(Cl)cc1)C(=O)N2 (centres undefined)", "Label": "no"}
{"Compound": "Cc1ccccc1C(CC(=O)O)C(C)c1ccccc1 (centres undefined)", "Label": "no"}
{"Compound": "O=C1C(Br)CCC1(c1ccccc1)c1ccccc1 (centres undefined)", "Label": "yes"}
{"Compound": "Cc1cccc2c1CC1(C2)Cc2c(C)cccc2C1=O (centres undefined)", "Label": "no"}
{"Compound": "O=C(O)Cc1cccc(O)c1", "Label": "no"}
{"Compound": "COc1cc(OC)c(/C=C\\c2ccnc3ccccc23)c(OC)c1", "Label": "no"}
{"Compound": "Clc1ccc(CSc2ncnc3c2ncn3C2CCCCO2)cc1 (centres undefined)", "Label": "yes"}
{"Compound": "O=C(Nc1cccc(Cl)c1)OCCOC(=O)Nc1cccc(Cl)c1", "Label": "yes"}
{"Compound": "Clc1sc2ccccc2c1Cl", "Label": "no"}

Every entry's value here was drawn from PubChem BioAssay (NCI).
